Tested on: MGC-803
test-summary: Antiproliferative activity against human MGC-803 cells assessed as cell growth inhibition after 72 hrs by SRB assay
Type: functional, cell-based
condition-details: MGC-803, 72 h
// returns Not fulfilled unless IC50 is strictly below 200 nM, in which case Fulfilled

Answered examples (6):
COc1ccc(/C=C\c2cc(OC)c(OC)c(OC)c2)cc1OCc1ccc(C(=O)NO)cc1 Fulfilled
COc1ccc(/C=C\c2cc(OC)c(OC)c(OC)c2)cc1Oc1ccc(C(=O)Nc2ccccc2N)cn1 Not fulfilled
COc1ccc(/C=C\c2cc(OC)c(OC)c(OC)c2)cc1OCc1ccc(C(=O)Nc2ccccc2N)cc1 Not fulfilled
COc1ccc(/C=C\c2cc(OC)c(OC)c(OC)c2)cc1Oc1ccc(C(C)(C)C(=O)NO)cc1 Not fulfilled
COc1ccc(C(=O)c2cc(OC)c(OC)c(OC)c2)cc1Oc1ccc(C(=O)NO)cc1 Not fulfilled
COc1ccc(C(=O)c2cc(OC)c(OC)c(OC)c2)cc1Oc1ccc(C(=O)NO)cn1 Not fulfilled

Query compound follows.
Query :: Answer whether the compound `COc1ccc(/C=C\c2cc(OC)c(OC)c(OC)c2)cc1OCCCCC(=O)NO` has IC50 strictly less than 200 nM
Result :: Not fulfilled

###

Tested on: MGC-803
test-summary: Antiproliferative activity against human MGC-803 cells assessed as cell growth inhibition after 72 hrs by SRB assay
Format: functional, cell-based
condition-details: MGC-803, 72 h
attribute-measured: IC50 (nM)
I only need the number, in nM, no unit after it.

Record excerpt, results attached:
COc1ccc(/C=C\c2cc(OC)c(OC)c(OC)c2)cc1Oc1ccc(C(=O)NO)cc1 927
COc1ccc(C(=O)c2cc(OC)c(OC)c(OC)c2)cc1OCC(=O)NO 105

Query compound follows.
Query :: Any idea what IC50 came out for `COc1ccc(C(=O)c2cc(OC)c(OC)c(OC)c2)cc1/C=C/C(=O)Nc1ccccc1N` on MGC-803?
Result :: 1100

###

Test system: L02
test-summary: Cytotoxicity against human L02 cells assessed as reduction in cell viability
Format: cell-based
attribute-measured: pIC50
Value format note: pIC50 is -log10 of concentration (mol/L); just state the number.

Query :: Entry under review: `COc1ccc(/C=C\c2cc(OC)c(OC)c(OC)c2)cc1/C=C/C(=O)Nc1ccccc1N` . Reported pIC50?
Result :: 6.25

###

# Lookup of reported pIC50 keyed by entry
Tested on: MGC-803
test-summary: Antiproliferative activity against human MGC-803 cells assessed as cell growth inhibition after 72 hrs by SRB assay
Format: functional, cell-based
condition-details: MGC-803, 72 h
Value format note: pIC50 is -log10 of concentration (mol/L); just state the number.

Record excerpt, results attached:
COc1ccc(/C=C\c2cc(OC)c(OC)c(OC)c2)cc1Oc1ccc(C(=O)NO)cn1 5.96
COc1ccc(/C=C\c2cc(OC)c(OC)c(OC)c2)cc1O 8.70
COc1ccc(C(=O)c2cc(OC)c(OC)c(OC)c2)c(/C=C/C(=O)Nc2ccccc2N)c1 5.79

Query compound follows.
Query :: Entry under review: `COc1ccc(/C=C\c2cc(OC)c(OC)c(OC)c2)cc1Oc1ccc(C(=O)Nc2ccccc2N)cc1` . Reported pIC50?
Result :: 5.87

###

# Lookup of reported pIC50 keyed by entry
Tested on: MGC-803
test-summary: Antiproliferative activity against human MGC-803 cells assessed as cell growth inhibition after 72 hrs by SRB assay
Assay type: functional, cell-based
condition-details: MGC-803, 72 h
pIC50: −log10 of the molar value.

Record excerpt, results attached:
COc1ccc(C(=O)c2cc(OC)c(OC)c(OC)c2)cc1OCCCC(=O)NO < 5.30
COc1ccc(/C=C\c2cc(OC)c(OC)c(OC)c2)cc1OCC(=O)NO 7.89
COc1ccc(/C=C\c2cc(OC)c(OC)c(OC)c2)cc1Oc1ccc(C(C)(C)C(=O)Nc2ccccc2N)cc1 < 5.30
COc1ccc(C(=O)c2cc(OC)c(OC)c(OC)c2)cc1OCc1ccc(C(=O)Nc2ccccc2N)cc1 < 5.30
COc1ccc(/C=C\c2cc(OC)c(OC)c(OC)c2)cc1/C=C/C(=O)Nc1ccccc1N 7.80

Query :: Any idea what pIC50 came out for `COc1ccc(C(=O)c2cc(OC)c(OC)c(OC)c2)cc1Oc1ccc(C(=O)Nc2ccccc2N)cc1` on MGC-803?
Result :: < 5.30

Query :: Any idea what pIC50 came out for `COc1ccc(/C=C\c2cc(OC)c(OC)c(OC)c2)c(/C=C/C(=O)NO)c1` on MGC-803?
Result :: 6.84
